Value source: patent US8153593B2

SYSTEM NAME: recombinant human tissue transglutaminase (Homo sapiens, UniProt P21980)
Construct: made in house
ASSAY SUMMARY: tTGase inhibition assay, residual activity by glutamate dehydrogenase coupled assay
Type: biochemical
EXPERIMENTAL CONTEXT: dihydroisoxazoles, Table 1
QUANTITY MEASURED: kinh (min⁻¹)

Worked cases, answers included:
{"columns": ["COMPOUND", "SYSTEM NAME", "kinh / min⁻¹"],
 "data": [
  ["COC(=O)[C@H](CCC(=O)NCC1CC(Br)=NO1)NC(=O)OCc1ccccc1 (some centres unmarked)", "recombinant human tissue transglutaminase (Homo sapiens, UniProt P21980)", 0.32],
  ["C[C@H](NC(=O)OCc1ccccc1)C(=O)NCC1CC(Br)=NO1 (some centres unmarked)", "recombinant human tissue transglutaminase (Homo sapiens, UniProt P21980)", 0.41],
  ["O=C(NCC1CC(Br)=NO1)Nc1ccc(Cl)cc1C(F)(F)F (centres unmarked)", "recombinant human tissue transglutaminase (Homo sapiens, UniProt P21980)", 1.1],
  ["O=C(N[C@@H](Cc1ccc(O)cc1)C(=O)NCC1CC(Br)=NO1)OCc1ccccc1 (some centres unmarked)", "recombinant human tissue transglutaminase (Homo sapiens, UniProt P21980)", 0.86],
  ["O=C(N[C@@H](Cc1c[nH]c2ccccc12)C(=O)NCC1CC(Br)=NO1)OCc1ccccc1 (some centres unmarked)", "recombinant human tissue transglutaminase (Homo sapiens, UniProt P21980)", 0.78],
  ["CC(=O)N[C@@H](Cc1ccccc1)C(=O)NCC1CC(Br)=NO1 (some centres unmarked)", "recombinant human tissue transglutaminase (Homo sapiens, UniProt P21980)", 0.60]
]}

P = CN(CC1CC(Br)=NO1)C(=O)[C@H](Cc1ccccc1)NC(=O)OCc1ccccc1 (some centres unmarked)
Q = O=C(N[C@@H](Cc1ccccc1)C(=O)NCC1CC(Br)=NO1)OCc1ccccc1 (some centres unmarked)
Task: // compare: P vs Q , metric kinh, want the smaller Give the label of your selection.
Output: P
(P: 0.19 min⁻¹, Q: 1.4 min⁻¹)

----------
SYSTEM NAME: recombinant human tissue transglutaminase (Homo sapiens)
Construct: made in house
ASSAY SUMMARY: tTGase inhibition assay, residual activity by glutamate dehydrogenase coupled assay
Type: biochemical
EXPERIMENTAL CONTEXT: Table 3
QUANTITY MEASURED: kinh (min⁻¹)

Answered examples (2):
{"columns": ["COMPOUND", "UNITS SYMBOL", "VALUE"],
 "data": [
  ["O=C(NCC1CC(Br)=NO1)[C@@H]1CCCN1C(=O)OCc1cnc2ccccc2c1 (stereo in doubt) [ERW1041E]", "min⁻¹", 2.856],
  ["O=C(NC(Cc1ccc(O)cc1)C(=O)NCC1CC(Br)=NO1)OCc1cnc2ccccc2c1 (centres unmarked) [ERW1041A]", "min⁻¹", 0.184]
]}

1 = O=C(NC(Cc1c[nH]c2ccc(O)cc12)C(=O)NCC1CC(Br)=NO1)OCc1cnc2ccccc2c1 (centres unmarked) [ERW1041B]
2 = O=C(NC(Cc1c[nH]c2ccc(F)cc12)C(=O)NCC1CC(Br)=NO1)OCc1cnc2ccccc2c1 (centres unmarked) [ERW1069]
3 = COc1ccc2[nH]cc(CC(NC(=O)OCc3cnc4ccccc4c3)C(=O)NCC3CC(Br)=NO3)c2c1 (centres unmarked) [ERW1041D]
Task: Task field, ranking: reported kinh, descending order. As an answer, provide the labels arranged in the order called for.
Output: 1, 3, 2
(1: 2.57 min⁻¹, 3: 0.283 min⁻¹, 2: 0.1314 min⁻¹)

----------
SYSTEM NAME: recombinant human tissue transglutaminase (Homo sapiens, UniProt P21980)
Construct: made in house
Sequence (P21980 1-687): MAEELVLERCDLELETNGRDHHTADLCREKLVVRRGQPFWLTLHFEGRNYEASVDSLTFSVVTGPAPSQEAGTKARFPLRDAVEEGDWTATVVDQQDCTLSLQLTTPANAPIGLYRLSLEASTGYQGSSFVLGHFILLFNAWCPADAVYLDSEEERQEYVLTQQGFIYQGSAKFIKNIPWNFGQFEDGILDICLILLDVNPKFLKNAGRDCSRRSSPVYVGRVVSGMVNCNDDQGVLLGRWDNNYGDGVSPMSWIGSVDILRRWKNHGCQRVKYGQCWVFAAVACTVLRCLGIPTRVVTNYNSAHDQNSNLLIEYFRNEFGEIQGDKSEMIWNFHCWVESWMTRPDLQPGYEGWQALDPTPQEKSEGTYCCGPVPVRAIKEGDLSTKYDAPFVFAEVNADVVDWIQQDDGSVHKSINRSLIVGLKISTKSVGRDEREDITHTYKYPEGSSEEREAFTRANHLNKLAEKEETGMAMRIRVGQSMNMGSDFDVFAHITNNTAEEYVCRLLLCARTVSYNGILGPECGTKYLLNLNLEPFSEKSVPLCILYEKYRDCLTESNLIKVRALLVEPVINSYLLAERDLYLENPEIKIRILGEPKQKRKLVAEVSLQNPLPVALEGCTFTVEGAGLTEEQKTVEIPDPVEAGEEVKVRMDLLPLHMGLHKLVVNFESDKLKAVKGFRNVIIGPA
ASSAY SUMMARY: tTGase inhibition assay, residual activity by glutamate dehydrogenase coupled assay
Assay type: biochemical
EXPERIMENTAL CONTEXT: Table 3
QUANTITY MEASURED: Ki (µM)

Known results for molecules:
{"columns": ["MOLECULE", "UNITS SYMBOL", "Ki"],
 "data": [
  ["COc1ccc2[nH]cc(CC(NC(=O)OCc3cnc4ccccc4c3)C(=O)NCC3CC(Br)=NO3)c2c1 (centres unmarked) [ERW1041D]", "µM", 173],
  ["O=C(NC(Cc1c[nH]c2ccc(F)cc12)C(=O)NCC1CC(Br)=NO1)OCc1cnc2ccccc2c1 (centres unmarked)", "µM", 4.9],
  ["O=C(NC(Cc1c[nH]c2ccc(O)cc12)C(=O)NCC1CC(Br)=NO1)OCc1cnc2ccccc2c1 (centres unmarked) [ERW1041B]", "µM", 1380]
]}

a = O=C(NC(Cc1ccc(O)cc1)C(=O)NCC1CC(Br)=NO1)OCc1cnc2ccccc2c1 (centres unmarked) [ERW1041A]
b = O=C(NCC1CC(Br)=NO1)[C@@H]1CCCN1C(=O)OCc1cnc2ccccc2c1 (stereo in doubt) [ERW1041E]
Task: Compare reported Ki values for a and b . Which is lower? Answer with the label corresponding to your selection.
Output: a

----------
SYSTEM NAME: recombinant human tissue transglutaminase (Homo sapiens)
Construct: made in house
ASSAY SUMMARY: tTGase inhibition assay, residual activity by glutamate dehydrogenase coupled assay
Format: biochemical
EXPERIMENTAL CONTEXT: Table 3
Overview of recorded kinh/KI for various compounds

Some solved entries appear below for comparison.
{"columns": ["COMPOUND", "kinh/KI"],
 "data": [
  ["O=C(NCC1CC(Br)=NO1)C1Cc2ccccc2N1C(=O)OCc1ccccc1 (stereo not shown)", "<1200 /Mmin"],
  ["O=C(NC(Cc1c[nH]c2ccc(F)cc12)C(=O)NCC1CC(Br)=NO1)OCc1ccccc1 (stereo not shown)", "<1200 >1200 <1200 <1200 /Mmin"]
]}

GET /value?item= O=C(NCC1CC(Br)=NO1)[C@@H]1CCCN1C(=O)OCc1cnc2ccccc2c1 (stereo in doubt) [ERW1041E] &field=kinh/KI returns 3000 /Mmin

response.value for O=C(NC(Cc1c[nH]c2ccc(F)cc12)C(=O)NCC1CC(Br)=NO1)OCc1cnc2ccccc2c1 (stereo not shown) (field: kinh/KI) = 26800 /Mmin

Measured kinh/KI of O=C(NC(Cc1c[nH]c2ccc(O)cc12)C(=O)NCC1CC(Br)=NO1)OCc1cnc2ccccc2c1 (stereo not shown) [ERW1041B] : 1850 /Mmin

The measured kinh/KI associated with O=C(NC(Cc1ccc(O)cc1)C(=O)NCC1CC(Br)=NO1)OCc1cnc2ccccc2c1 (stereo not shown) [ERW1041A] reads 2900 /Mmin

Entry COc1ccc2[nH]cc(CC(NC(=O)OCc3cnc4ccccc4c3)C(=O)NCC3CC(Br)=NO3)c2c1 (stereo not shown) [ERW1041D] ; kinh/KI = 1600 /Mmin

----------
SYSTEM NAME: recombinant human tissue transglutaminase (Homo sapiens, UniProt P21980)
Construct: made in house
ASSAY SUMMARY: tTGase inhibition assay, residual activity by glutamate dehydrogenase coupled assay
Type: biochemical
EXPERIMENTAL CONTEXT: dihydroisoxazoles, Table 1
QUANTITY MEASURED: kinh/Ki (min^−1M^−1)

{"columns": ["COMPOUND", "VALUE"],
 "data": [
  ["CN(CC1CC(Br)=NO1)C(=O)[C@H](Cc1ccccc1)NC(=O)OCc1ccccc1 (some centres unmarked)", 730],
  ["Cc1ccc(C)c(NC(=O)NCC2CC(Br)=NO2)c1 (centres unmarked)", 1000],
  ["COC(=O)[C@H](CC(=O)NCC1CC(Br)=NO1)NC(=O)OCc1ccccc1 (some centres unmarked)", 490],
  ["O=C(NCC1CC(Br)=NO1)Nc1cc(C(F)(F)F)ccc1Cl (centres unmarked)", 1000],
  ["COC(=O)[C@H](CCC(=O)NCC1CC(Br)=NO1)NC(=O)OCc1ccccc1 (some centres unmarked)", 200],
  ["O=C(NCC1CC(Br)=NO1)Nc1ccc(F)cc1 (centres unmarked)", 770],
  ["O=C(N[C@@H](Cc1ccc(O)cc1)C(=O)NCC1CC(Br)=NO1)OCc1ccccc1 (some centres unmarked)", 2000],
  ["O=C(N[C@@H](Cc1ccccc1)C(=O)OCC1CC(Br)=NO1)OCc1ccccc1 (some centres unmarked)", 230],
  ["O=C(N[C@@H](Cc1c[nH]c2ccccc12)C(=O)NCC1CC(Br)=NO1)OCc1ccccc1 (some centres unmarked)", 2500],
  ["O=C(NCC1CC(Br)=NO1)Nc1ccccc1 (centres unmarked)", 810]
]}

a = C[C@H](NC(=O)OCc1ccccc1)C(=O)NCC1CC(Br)=NO1 (some centres unmarked)
b = CC(=O)N[C@@H](Cc1ccccc1)C(=O)NCC1CC(Br)=NO1 (some centres unmarked)
Task: Endpoint returns whichever of a and b has the numerically higher kinh/Ki. Pick one; state its label.
Output: a
(a: 450 min^−1M^−1, b: 220 min^−1M^−1)

I = O=C(C[C@H](NC(=O)OCc1ccccc1)C(=O)NCC1CC(Br)=NO1)NCc1ccccc1 (some centres unmarked)
II = O=C(NCC1CC(Br)=NO1)Nc1ccc(Cl)cc1C(F)(F)F (centres unmarked)
Task: Between the two listed entries I and II , which has its kinh/Ki at the higher number? Pick one; state its label.
Output: I
(I: 2300 min^−1M^−1, II: 850 min^−1M^−1)
